target: SSTR2 (Homo sapiens); assay: SSTR binding affinity by radioligand binding competition assay ([125I]-Tyr11-Somatostatin, membrane extracts); details: radioligand competition, [125I]-Tyr11-Somatostatin 0.1 nM, membrane extracts; Ki from IC50 by Cheng Prusoff; read-out: SSTR2 Ki
Numbered stars: 1 amine (or outer) side, 2 acyl side, 3 side chain; on linkers, the order of the positions; unused ones are H or OH. Square brackets hold non-standard residues; d marks the D form. Peptide text beside a SMILES is read from it. * marks the point of attachment. DOTA(Lu)NH(CH2)6NHCOCH2 = O=C(CN1CCN2CCN3CCN(CC1)CC(=O)[O][Lu]([O]C(=O)C2)[O]C(=O)C3)NCCCCCCNC(=O)C*; DOTA(Lu) = O=C1CN2CCN3CCN(CC(=O)*)CCN(CC2)CC(=O)[O][Lu]([O]1)[O]C(=O)C3; Ala(piperidin-4-yl) = O=C([C@H](CC1CCN([*:3])CC1)N[*:1])[*:2]; dTrp(βS-Me) = C[C@@H](c1c[nH]c2ccccc12)[C@@H](N)C(=O)O; Gly(cPr) = N[C@H](C(=O)O)C1CC1; NMehCys = CN[C@@H](CCS)C(=O)O; NMeK = CN[C@@H](CCCCN)C(=O)O
Consider the following compounds and their measured Ki readings.

Query CC(C)[C@@H]1NC(=O)[C@H](CCCCN)NC(=O)[C@@H](Cc2c[nH]c3ccccc23)NC(=O)[C@H](Cc2ccc(O)cc2)NC(=O)[C@H](CCSCC(=O)NCCCCCCNC(=O)CN2CCN3CCN4CCN(CC2)CC(=O)[O][Lu]([O]C(=O)C3)[O]C(=O)C4)N(C)C(=O)[C@H](C2CC2)NC1=O [RB-0005247] (cyclo([Gly(cPr)][NMehCys](DOTA(Lu)NH(CH2)6NHCOCH2)Y[dW]KV)) yields Ki of 3.33 to 10 nM

Query COc1ccc(C[C@@H]2NC(=O)[C@H](CCCCNC(=O)CN3CCN4CCN5CCN(CC3)CC(=O)[O][Lu]([O]C(=O)C4)[O]C(=O)C5)N(C)C(=O)[C@H](Cc3ccccc3)NC(=O)[C@H]([C@@H](C)O)NC(=O)[C@H](CC3CCNCC3)NC(=O)[C@@H]([C@@H](C)c3c[nH]c4ccccc34)NC2=O)cc1 [RB-0006139] (cyclo(F[NMeK](DOTA(Lu))Y(Me)[dTrp(βS-Me)][Ala(piperidin-4-yl)]T)) yields Ki of 33.3 to 100 nM

* * *

biological target: SSTR2 (Homo sapiens); assay: SSTR binding affinity by radioligand binding competition assay ([125I]-Tyr11-Somatostatin, membrane extracts); conditions: radioligand competition, [125I]-Tyr11-Somatostatin 0.1 nM, membrane extracts; Ki from IC50 by Cheng Prusoff; read-out: SSTR2 Ki
pKi: −log10 of the molar value. Square brackets hold non-standard residues; d marks the D form. Side chains are listed from the residue outwards. Peptide text beside a SMILES is read from it. * marks the point of attachment. DOTA(Lu) = O=C1CN2CCN3CCN(CC(=O)*)CCN(CC2)CC(=O)[O][Lu]([O]1)[O]C(=O)C3; dTrp(βS-Me) = C[C@@H](c1c[nH]c2ccccc12)[C@@H](N)C(=O)O; Ala(piperazin-1-yl) = N[C@@H](CN1CCNCC1)C(=O)O; Trx = NC[C@H]1CC[C@H](C(=O)O)CC1; NMeK = CN[C@@H](CCCCN)C(=O)O
measuredProperty: pKi

Some solved cases for reference:
molecule	pKi
C[C@@H](O)[C@@H]1NC(=O)[C@H](CCCCN)NC(=O)[C@@H](Cc2c[nH]c3ccccc23)NC(=O)[C@H](Cc2ccc(O)cc2)NC(=O)[C@H](CCCSCC(=O)NCCCCCCNC(=O)CN2CCN3CCN4CCN(CC2)CC(=O)[O][Lu]([O]C(=O)C3)[O]C(=O)C4)N(C)C(=O)[C@H](Cc2ccccc2)NC1=O	> 9.00
C[C@@H](O)[C@@H]1NC(=O)[C@H](CN2CCNCC2)NC(=O)[C@@H]([C@@H](C)c2c[nH]c3ccccc23)NC(=O)[C@H](Cc2ccc(O)cc2)NC(=O)[C@H](CCCCNC(=O)[C@H]2CC[C@H](CNC(=O)CN3CCN4CCN5CCN(CC3)CC(=O)[O][Lu]([O]C(=O)C4)[O]C(=O)C5)CC2)N(C)C(=O)[C@H](Cc2ccccc2)NC1=O [RB-0006420] (cyclo(F[NMeK]([Trx-DOTA(Lu)])Y[dTrp(βS-Me)][Ala(piperazin-1-yl)]T))	8.48 to 9.00

Now look at this one.
Query C[C@@H](O)[C@@H]1NC(=O)[C@H](CCCCN)NC(=O)[C@@H](Cc2c[nH]c3ccccc23)NC(=O)[C@H](Cc2ccc(O)cc2)NC(=O)[C@H](CCSCC(=O)NCCOCCOCCOCCNC(=O)CN2CCN3CCN4CCN(CC2)CC(=O)[O][Lu]([O]C(=O)C3)[O]C(=O)C4)N(C)C(=O)[C@H](COc2ccccc2)NC1=O yields pKi of > 9.00

* * *

molecular target: SSTR2 (Homo sapiens, UniProt P30874); assay: SSTR binding affinity by radioligand binding competition assay ([125I]-Tyr11-Somatostatin, membrane extracts); conditions: radioligand competition, [125I]-Tyr11-Somatostatin 0.1 nM, membrane extracts; Ki from IC50 by Cheng Prusoff; read-out: SSTR2 Ki
Sequence (P30874 whole entry): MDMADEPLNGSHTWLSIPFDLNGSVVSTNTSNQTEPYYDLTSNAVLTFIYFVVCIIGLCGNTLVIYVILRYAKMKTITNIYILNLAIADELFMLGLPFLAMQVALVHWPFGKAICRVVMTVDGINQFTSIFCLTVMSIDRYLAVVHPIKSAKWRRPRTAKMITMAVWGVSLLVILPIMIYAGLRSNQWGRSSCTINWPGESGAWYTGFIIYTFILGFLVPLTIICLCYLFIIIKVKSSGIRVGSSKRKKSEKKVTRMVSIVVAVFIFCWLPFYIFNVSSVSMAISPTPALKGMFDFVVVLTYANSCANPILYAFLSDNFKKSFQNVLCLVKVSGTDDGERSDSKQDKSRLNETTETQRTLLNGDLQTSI
pKi: −log10 of the molar value. Numbered stars: 1 amine (or outer) side, 2 acyl side, 3 side chain; on linkers, the order of the positions; unused ones are H or OH. Square brackets hold non-standard residues; d marks the D form. Peptide text beside a SMILES is read from it. * marks the point of attachment. DOTA(Lu)NH(CH2)6NHCOCH2 = O=C(CN1CCN2CCN3CCN(CC1)CC(=O)[O][Lu]([O]C(=O)C2)[O]C(=O)C3)NCCCCCCNC(=O)C*; DOTA(Lu) = O=C1CN2CCN3CCN(CC(=O)*)CCN(CC2)CC(=O)[O][Lu]([O]1)[O]C(=O)C3; Ala(piperidin-4-yl) = O=C([C@H](CC1CCN([*:3])CC1)N[*:1])[*:2]; dTrp(βS-Me) = C[C@@H](c1c[nH]c2ccccc12)[C@@H](N)C(=O)O; dTrp(6-Cl) = N[C@H](Cc1c[nH]c2cc(Cl)ccc12)C(=O)O; Phe(3R-Me) = C[C@H](c1ccccc1)[C@H](N)C(=O)O; NMehCys = CN[C@@H](CCS)C(=O)O; NMeK = CN[C@@H](CCCCN)C(=O)O
Consider the following compounds and their measured pKi readings.

compound	pKi
C[C@@H](O)[C@@H]1NC(=O)[C@H](CN2CCNCC2)NC(=O)[C@@H]([C@@H](C)c2c[nH]c3ccccc23)NC(=O)[C@H](Cc2ccc(O)cc2)NC(=O)[C@H](CCCCNC(=O)CCC2C(=O)[O][Ga]3[O]C(=O)CN4CCN(CCN2CC4)CC(=O)[O]3)N(C)C(=O)[C@H](Cc2ccccc2)NC1=O (mixture of isomers) [RB-0006417]	8.48 to 9.00
C[C@@H](O)[C@@H]1NC(=O)[C@H](CCCCN)NC(=O)[C@@H](Cc2c[nH]c3ccccc23)NC(=O)[C@H](Cc2ccc(O)cc2)NC(=O)[C@H](CCSCCC(=O)NCCCCC[C@H](NC(=O)CN2CCN3CCN4CCN(CC2)CC(=O)[O][Lu]([O]C(=O)C3)[O]C(=O)C4)C(=O)O)N(C)C(=O)[C@H](Cc2ccccc2)NC1=O [RB-0003375]	8.48 to 9.00
C[C@@H](O)[C@@H]1NC(=O)[C@H](CC2CCNCC2)NC(=O)[C@@H]([C@@H](C)c2c[nH]c3ccccc23)NC(=O)[C@H](Cc2ccc(O)cc2)NC(=O)[C@H](CCCCNC(=O)CN2CCN3CCN4CCN(CC2)CC(=O)[O][Lu]([O]C(=O)C3)[O]C(=O)C4)N(C)C(=O)[C@H](Cc2ccccc2)NC1=O [RB-0005797] (cyclo(F[NMeK](DOTA(Lu))Y[dTrp(βS-Me)][Ala(piperidin-4-yl)]T))	> 9.00
C[C@H](c1ccccc1)[C@@H]1NC(=O)[C@H](CCSCC(=O)NCCCCCCNC(=O)CN2CCN3CCN4CCN(CC2)CC(=O)[O][Lu]([O]C(=O)C3)[O]C(=O)C4)N(C)C(=O)[C@H](Cc2ccccc2)NC(=O)[C@H]([C@@H](C)O)NC(=O)[C@H](CCCCN)NC(=O)[C@@H](Cc2c[nH]c3ccccc23)NC1=O [RB-0003137] (cyclo(F[NMehCys](DOTA(Lu)NH(CH2)6NHCOCH2)[Phe(3R-Me)][dW]KT))	> 9.00
C[C@@H](O)[C@@H]1NC(=O)[C@H](CCCCN)NC(=O)[C@@H](Cc2c[nH]c3ccccc23)NC(=O)[C@H](Cc2ccc(O)cc2)NC(=O)[C@H](CNC(=O)C[C@H](NC(=O)CCCCCNC(=O)CN2CCN3CCN4CCN(CC2)CC(=O)[O][Lu]([O]C(=O)C3)[O]C(=O)C4)C(=O)O)N(C)C(=O)[C@H](Cc2ccccc2)NC1=O [RB-0005732]	7.00 to 7.48

Now look at this one.
Query C[C@@H](O)[C@@H]1NC(=O)[C@H](CC2CCNCC2)NC(=O)[C@@H](Cc2c[nH]c3cc(Cl)ccc23)NC(=O)[C@H](Cc2ccc(O)cc2)NC(=O)[C@H](CCSCC(=O)NCCCCCCNC(=O)CN2CCN3CCN4CCN(CC2)CC(=O)[O][Lu]([O]C(=O)C3)[O]C(=O)C4)N(C)C(=O)[C@H](Cc2ccccc2)NC1=O [RB-0006189] (cyclo(F[NMehCys](DOTA(Lu)NH(CH2)6NHCOCH2)Y[dTrp(6-Cl)][Ala(piperidin-4-yl)]T)) yields pKi of 8.48 to 9.00

Source of measurements: patent US20250222146A1
